- System: Yap1 mRNA
- test: Antisense inhibition of human Yap1 in SNU-449 cells by modified oligonucleotides, single dose (Example 5, RTS36584)
- Assay type: cell-based
- experimentalContext: Table 42 (separate experiment); SNU-449 cells, 10,000 cells per well, free uptake, 2,000 nM modified oligonucleotide, approximately 48 hours; RTS36584; normalized to RIBOGREEN; Yap1 mRNA relative to untreated control cells
Strand notation (5' to 3'): a small letter for the sugar, then the base; units joined by * are phosphorothioate-linked, units joined directly phosphodiester-linked; [ ] holds rarer units or linkages, { } end groups; capitals alone tell only the bases. e = 2'-O-(2-methoxyethyl) (MOE); k = constrained ethyl (cEt); [5mC] = 5-methylcytosine; d = 2'-deoxy (DNA)
Label class 1 when YAP1 (% UTC) is at or above 50 % UTC; anything below gets class 0.

Look over these answered cases.
Problem: Can 1198685 (antisense k[5mC]*kA*dA*d[5mC]*dT*d[5mC]*dT*dT*dA*dT*dA*dT*kG*eG*kT*eT) [Compound 1198685] be said to have YAP1 (% UTC) at or above 50 % UTC?
Result: class 1

Problem: Answer whether YAP1 (% UTC) of 1198646 (kT*kA*dT*dA*dA*d[5mC]*dT*dG*dG*dG*d[5mC]*dA*kA*eA*kT*eT) [Compound 1198646] is greater than or equal to 50 % UTC.
Result: class 1

Problem: Does YAP1 (% UTC) meet or surpass 50 % UTC for 1198202 (kG*kA*dA*dA*dT*dT*dG*dT*d[5mC]*dT*d[5mC]*eA*eT*eG*k[5mC]*k[5mC]; antisense) [Compound 1198202] ?
Result: class 0

Problem: Quick check, YAP1 (% UTC) >= 50 % UTC? 1095483 (antisense k[5mC]*kA*d[5mC]*dT*dG*dA*dG*dG*dT*dA*dT*dA*kA*e[5mC]*kT*eG) [Compound 1095483]
Result: class 1

Problem: Could you verify whether the entry 1198223 (k[5mC]*kT*dT*dT*dT*dA*d[5mC]*dA*dT*dT*dA*eG*eG*eA*kA*k[5mC]) [Compound 1198223] shows YAP1 (% UTC) of no less than 50 % UTC?
Result: class 1

Problem: Given 1198702 (kT*kT*dT*dA*dA*dA*dG*dT*dG*dT*dA*dT*kG*eT*k[5mC]*eA; antisense) [Compound 1198702] , state whether its YAP1 (% UTC) is at least 50 % UTC.
Result: class 1

Problem: In plain terms: is recorded YAP1 (% UTC) at least 50 % UTC for 1198239 (kA*kG*dG*dA*dT*dG*d[5mC]*dA*dT*dG*dG*eT*eT*eT*kT*kT) [Compound 1198239] ?
Result: class 0

Problem: Could you tell me if the measured YAP1 (% UTC) of 1198679 (antisense TTATATGGTTTTGTGT; cEt/MOE gapmer, phosphorothioate, chemistry not fully specified) [Compound 1198679] reaches 50 % UTC or more?
Result: class 1

Problem: YAP1 (% UTC) >= 50 % UTC for 1198681 (antisense T_{ks}C_{ks}T_{ds}T_{ds}A_{ds}T_{ds}A_{ds}T_{ds}G_{ds}G_{ds}T_{ds}T_{ds}T_{ks}T_{es}G_{ks}T_{e}; as printed in the source, key not given here) [Compound 1198681] ?
Result: class 1

Problem: API: above_or_equal(metric=YAP1 (% UTC), cutoff=50 % UTC) for item 1198701 (kT*kT*dA*dA*dA*dG*dT*dG*dT*dA*dT*dG*kT*e[5mC]*kA*eG; antisense) [Compound 1198701]
Result: class 0

New cases:
Problem: Is YAP1 (% UTC) at least 50 % UTC? Consider 1198209 (kT*kA*dG*dA*dG*dT*dA*dT*dG*dT*dG*eG*e[5mC]*eA*kA*kT; antisense) [Compound 1198209]
Result: class 0

Problem: Could you please find out whether 1198222 (kT*kT*dT*dT*dA*d[5mC]*dA*dT*dT*dA*dG*eG*eA*eA*k[5mC]*kA) [Compound 1198222] has YAP1 (% UTC) that meets 50 % UTC or exceeds it?
Result: class 1
